Known Enzyme Activity Endpoint Assay (purified): scIgG of a selection of proteins
Assayed Target: pooled human IgG (human IgG1, 2, 3 and 4)
Measured Parameter: Enzyme Activity Endpoint Assay (purified): scIgG (ng/µL)

PRT-413 (protein) MTITSVWTKGVTPPTPEDFRENNEDVLHAPYVANQGWYDITKTFDGKDNLLCGAATAGNMLHWWFDQNKEEIERYLKKHPEKQKIIFNNQELFDVKAAIDTKDSQTNSKLFNYFRDKAFPNLSARQLGVMPDLVLDMFINGYYLNLGKTQSTDVNRPYQDKDKRGGIFDAVFTRGDQTTLLTARHDLKNKGLNEISDLIKQELTEGKALALSHTYANVRINHVINLWGADFDAEGNLIAIYVTDSDANASIGMKKYFVGVNANGKVAISAKKIEGDNIGAQVLGLFTLSTGQDIWQKLS :: 152
PRT-400 (protein) MVTSVWTKGVTPPADFTQGEDVFHAPYDANQGWYDITKTFNGKDDLLCGAATAGNMLHWWFDQNKEYIEAYLKKHPEKQKIMFGDQELLDVRKAINTKGSQKNSELFNYFRDKAFPNLSARRLGVMPDLVLDMFINGYYLNVTKTQTTDVNRTYQEKDKRGGIFDAVFTRGDQSKLLTSRHDFKEKGLKEISDLIKQELTEGKALGLSHTYANVRINHVINLWGADFDSDGNLKAIYVTDSDSNASIGMKKYFVGVNSAGKVAISAKEIKEDNIGAQVLGLFTLSTGQDIWNQTN :: 0

Reference for the values: patent US20250027068
